The measurements presented in this section are drawn from paper PMC10786919.

procedure_summary: Solubility assay (kinetic solubility, PBS pH 7)
Assay type: physicochemical
condition_set: pH 7, aqueous buffer, kinetic from dmso stock, pH 7, PBS; read-out: Solubility
measurement_name: solubility kinetic (µM)

* CC(=O)N[C@@H](CCCCN=[N+]=[N-])C(=O)N[C@@H](CCCCN)C(=O)N[C@@H](CCCCN)C(=O)N[C@@H](CC(C)C)C(=O)N[C@H](C(=O)N[C@@H](Cc1ccccc1)C(=O)N[C@]1(C)CCCCCCC=CCCC[C@@](C)(C(=O)N[C@@H](CO)C(=O)N[C@@H](C)C(=O)N[C@@H](C)C(N)=O)NC(=O)[C@H](CC2CCC2)NC(=O)[C@H](CCC(N)=O)NC(=O)[C@H](C)NC(=O)[C@H](Cc2c[nH]c3ccccc23)NC(=O)[C@H](Cc2ccc(O)cc2)NC(=O)[C@H](CCC(=O)O)NC1=O)[C@@H](C)O [MP-026] | 3

* * *

procedure_summary: physchem
Positions of bridges follow the written chain, without caps; N, C: chain ends. Non-standard residues stand in square brackets, D forms with d. Residues, ends and D or L forms follow the SMILES beside them. Lys(N3) = [N-]=[N+]=NCCCC[C@H](N)C(=O)O; R8 = C=CCCCCCC[C@@](C)(N)C(=O)O; Cba = N[C@@H](CC1CCC1)C(=O)O; S5 = C=CCCC[C@](C)(N)C(=O)O; βAla = NCCC(=O)O
measurement_name: EPSA (A^2)

• CC(=O)N[C@@H](CCCCN=[N+]=[N-])C(=O)NCCC(=O)NCC(=O)N[C@H](C(=O)N[C@@H](Cc1ccccc1)C(=O)N[C@]1(C)CCCCCCC=CCCC[C@@](C)(C(=O)N[C@@H](CO)C(=O)N[C@@H](C)C(=O)N[C@@H](C)C(N)=O)NC(=O)[C@H](CC2CCC2)NC(=O)[C@H](CCC(N)=O)NC(=O)CNC(=O)[C@H](Cc2c[nH]c3ccccc23)NC(=O)[C@H](Cc2ccc(O)cc2)NC(=O)CNC1=O)[C@@H](C)O [MP-692] (Ac-[Lys(N3)][βAla]GTF[R8]GYWGQ[Cba][S5]SAA-NH2; staple 6-13) = 200

* * *

procedure_summary: Lactate dehydrogenase (LDH) release assay
Type: cell-based
condition_set: 0% FBS 4Hr; read-out: LDH: Cytotoxicity assay: EC50
pEC50: −log10 of the molar value.
measurement_name: pEC50

* CC(=O)N[C@@H](CCCCN=[N+]=[N-])C(=O)NCCC(=O)N[C@@H](CC(C)C)C(=O)N[C@H](C(=O)N[C@@H](Cc1ccccc1)C(=O)N[C@]1(C)CCCCCCC=CCCC[C@@](C)(C(=O)N[C@@H](CO)C(=O)N[C@@H](C)C(=O)N[C@@H](C)C(N)=O)NC(=O)[C@H](CC2CCC2)NC(=O)[C@H](CCC(N)=O)NC(=O)[C@H](C)NC(=O)[C@H](C)NC(=O)[C@H](Cc2ccc(O)cc2)NC(=O)[C@H](CCC(=O)O)NC1=O)[C@@H](C)O [MP-893, AZIDE-ATSP-7041(W7A)] | 4.83

* * *

System: HCT116 cells
procedure_summary: Lactate dehydrogenase (LDH) release assay
Format: cell-based
condition_set: 0% FBS 4Hr
measurement_name: LDH: Cytotoxicity assay % Effect (%)

- CC(=O)N[C@@H](CCCCN=[N+]=[N-])C(=O)NCCC(=O)N[C@@H](CCCCN)C(=O)N[C@H](C(=O)N[C@@H](Cc1ccccc1)C(=O)N[C@]1(C)CCCCCCC=CCCC[C@@](C)(C(=O)N[C@@H](CO)C(=O)N[C@@H](C)C(=O)N[C@@H](C)C(N)=O)NC(=O)[C@H](CC2CCC2)NC(=O)[C@H](CCC(N)=O)NC(=O)[C@H](C)NC(=O)[C@H](Cc2c[nH]c3ccccc23)NC(=O)[C@H](Cc2ccc(O)cc2)NC(=O)[C@H](CCC(=O)O)NC1=O)[C@@H](C)O [MP-546, AZIDE-ATSP-7041 (L1K)]: 34.42
- CC(=O)N[C@@H](CCCCN=[N+]=[N-])C(=O)NCCC(=O)N[C@@H](CC(C)C)C(=O)N[C@H](C(=O)N[C@@H](Cc1ccccc1)C(=O)N[C@]1(C)CCCCCCC=CCCC[C@@](C)(C(=O)N[C@@H](CO)C(=O)N[C@@H](C)C(=O)N[C@@H](C)C(N)=O)NC(=O)[C@H](CC2CCC2)NC(=O)[C@H](CCCCN)NC(=O)[C@H](C)NC(=O)[C@H](Cc2c[nH]c3ccccc23)NC(=O)[C@H](Cc2ccc(O)cc2)NC(=O)[C@H](CCC(=O)O)NC1=O)[C@@H](C)O [MP-550, AZIDE-ATSP-7041 (Q9K)]: 7.145
